- ASSAY_SYSTEM: 11-beta-hydroxysteroid dehydrogenase 1 (Homo sapiens)
- ASSAY_DETAILS: ligand binding to human 11beta-HSD1 – biophysical, DSF, SYPRO orange, purified protein (AID 398)
- SETUP_CONDITIONS: DSF thermal shift, at 10 µM, protein 3 µM, buffer 10 mM HEPES, pH 7.5, NaCl 150 mM, NADP 100 µM, hits give high values
Exercise: state measured Tm shift for each of the compounds provided.

Some compounds with recorded Tm shift:
CC(C)(COP(=O)(O)OP(=O)(O)OCC1OC(n2cnc3c(N)ncnc32)C(O)C1OP(=O)(O)O)C(O)C(=O)NCCC(=O)NCCSC(=O)Cc1ccccc1 (centres undefined) ... 3.6 Celsius
C=CC1=C(C)/C(=C/c2[nH]c(Cc3[nH]c(/C=C4\NC(=O)C(C)=C4C=C)c(C)c3CCC(=O)O)c(CCC(=O)O)c2C)NC1=O ... 3.9 Celsius
CC(C)(COP(=O)(O)OP(=O)(O)OCC1OC(n2cnc3c(N)ncnc32)C(O)C1OP(=O)(O)O)C(O)C(=O)NCCC(=O)NCCSC(=O)CCC(=O)O (centres undefined) ... 2.7 Celsius

Now consider the entry below.
Req: Hello, I am looking for reported Tm shift with 11-beta-hydroxysteroid dehydrogenase 1 (Homo sapiens) for COC(=O)[C@H](C)CO . Could you help?
Resp: 6.7 Celsius
